biological target: T1, human VISTA extracellular domain (human, UniProt Q9H7M9 33-194); test: SPR ProteOn
T1 construct: also called human VISTA ECD; SB0361 (human)
T1 sequence (Q9H7M9 other isoform, or with tags, fused parts or gaps limits assumed): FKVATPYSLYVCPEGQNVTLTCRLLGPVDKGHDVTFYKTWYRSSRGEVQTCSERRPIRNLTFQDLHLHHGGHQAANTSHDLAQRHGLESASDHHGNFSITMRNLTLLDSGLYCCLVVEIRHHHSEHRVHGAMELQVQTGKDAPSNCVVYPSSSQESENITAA
Listed next: entries and their corresponding kon.
Field format: number, assumed M⁻¹ s⁻¹, no unit text.

Examples with answers:
VSTB60 (antibody, human IgG1, kappa, V domains shown, also called S47; INX Code 47) VH: QVQLVQSGSELKKPGASVKVSCKASGYTFTNYGMTWVRQAPGQGLEWMGWINTYTGESTYADDFKGRFVFSLDTSVSTAYLQICSLKAEDTAVYYCARDYYGIYVSAYWGQGTLVTVSS VL: DIVMTQTPLSLSVTPGQPASISCRASESVDNYANSFMHWYLQKPGQSPQLLIYRASNLESGVPDRFSGSGSGTDFTLKISRVEAEDVGVYYCQQSHEDPYTFGQGTKLEIKR    514000
VSTB53 (antibody, human IgG1, kappa, V domains shown, also called S43; INX Code 43) VH: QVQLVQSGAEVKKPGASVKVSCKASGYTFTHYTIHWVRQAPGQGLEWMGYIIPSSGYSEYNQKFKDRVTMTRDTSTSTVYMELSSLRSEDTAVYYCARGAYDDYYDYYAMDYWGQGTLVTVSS VL: DIVMTQSPLSLPVTPGEPASISCRSSQTIVHSNGNTYLEWYLQKPGQSPQLLIYKVSNRFSGVPDRFSGSGSGTDFTLKISRVEAEDVGVYYCFQASHVPWTFGQGTKLEIKR    1.25e+06
VSTB50 (antibody, human IgG1, kappa, V domains shown, also called S41; INX Code 41) VH: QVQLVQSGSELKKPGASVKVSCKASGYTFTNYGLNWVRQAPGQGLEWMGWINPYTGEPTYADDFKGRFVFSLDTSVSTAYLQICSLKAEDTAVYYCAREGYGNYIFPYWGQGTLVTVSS VL: DIVMTQTPLSLSVTPGQPASISCRASESVDTYANSLMHWYLQKPGQPPQLLIYRASNLESGVPDRFSGSGSGTDFTLKISRVEAEDVGVYYCQQTNEDPRTFGQGTKLEIKR    482000

Okay, next one:
Documented kon of VSTB95 (antibody, human IgG1, kappa, V domains shown, also called S16; INX Code 16) VH: EVQLVESGGGLVQPGGSLRLSCAASGFTFRNYGMSWVRQAPGKGLEWVASIISGGSYTYYPDSVKGRFTISRDNAKNSLYLQMNSLRAEDTAVYYCARIYDHDGDYYAMDYWGQGTTVTVSS VL: DIVMTQSPLSLPVTPGEPASISCRSSQSIVHSNGNTYLEWYLQKPGQSPQLLIYKVSNRFSGVPDRFSGSGSGTDFTLKISRVEAEDVGVYYCFQGSHVPWTFGQGTKLEIKR : 554000

Measured values drawn from patent US20210318322A1 for this set.
